Tested on: Saccharomyces cerevisiae
protocol-text: protein stability index of tFT-peptide fusion (C-terminal peptide) (PSI (0-1 scale)); higher = more stable (slower turnover)
setup-conditions: genetic background: wild type; temperature: 30 C
assay-readout: protein stability index

seq-string: VVLCQVCVLWGW
experimental-system: Saccharomyces cerevisiae
assay-value: 0.257
//
seq-string: GPKPHREKKSIN
experimental-system: Saccharomyces cerevisiae
assay-value: 0.73
//
seq-string: VWGGWRRGRAWW
experimental-system: Saccharomyces cerevisiae
assay-value: 0.724
//
seq-string: VIEIGEYSGNGK
experimental-system: Saccharomyces cerevisiae
assay-value: 0.707
//
seq-string: RFKEKVSIIHKQ
experimental-system: Saccharomyces cerevisiae
assay-value: 0.207
//
seq-string: SYKAFVFSSDVW
experimental-system: Saccharomyces cerevisiae
assay-value: 0.77
//
seq-string: SFFGRVDSRSLP
experimental-system: Saccharomyces cerevisiae
assay-value: 0.718
//
seq-string: PPPLSCPSRPSL
experimental-system: Saccharomyces cerevisiae
assay-value: 0.526
//
seq-string: PHLPSPRPRPPP
experimental-system: Saccharomyces cerevisiae
assay-value: 0.722
//
seq-string: GFRGILFPVGRS
experimental-system: Saccharomyces cerevisiae
assay-value: 0.736
//
seq-string: VFFDLALRWYGV
experimental-system: Saccharomyces cerevisiae
assay-value: 0.748
//
seq-string: GGFWLGVGSRVG
experimental-system: Saccharomyces cerevisiae
assay-value: 0.711
//
seq-string: GTETWVFVLLKF
experimental-system: Saccharomyces cerevisiae
assay-value: 0.218
//
seq-string: PAVRGEMYLGVG
experimental-system: Saccharomyces cerevisiae
assay-value: 0.685
//
seq-string: GWDFRERLGGSG
experimental-system: Saccharomyces cerevisiae
assay-value: 0.71
//
seq-string: PPAPSPPPPPPP
experimental-system: Saccharomyces cerevisiae
assay-value: 0.622
//
seq-string: SGWGGGTWVKMG
experimental-system: Saccharomyces cerevisiae
assay-value: 0.309
//
seq-string: FVALWVGCCWLG
experimental-system: Saccharomyces cerevisiae
assay-value: 0.542
//
seq-string: GVFFHFFFLFCF
experimental-system: Saccharomyces cerevisiae
assay-value: 0.43

---

// reported protein stability index for each item listed
System: Saccharomyces cerevisiae;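 also: PSI is a weighted mean of sequencing reads over stability bins, variants kept only with over 10 reads, mCherry proximal and sfGFP distal, peptide attached via GGGS linker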
protocol-text: protein stability index of tFT-peptide fusion (C-terminal peptide) (PSI (0-1 scale)); higher = more stable (slower turnover)
setup-conditions: genetic background: wild type; temperature: 30 C

seq-string: FVLWFTSSGCSN
protein stability index: 0.76

seq-string: LIGKNNTSIQLK
protein stability index: 0.742

seq-string: PLSTPPPLLLTP
protein stability index: 0.719

seq-string: SPPSFIVPSTSL
protein stability index: 0.69

seq-string: SFPPTSPTHFPL
protein stability index: 0.703

seq-string: AAGWLWVWGVEG
protein stability index: 0.643

seq-string: SWFNLLSILPRD
protein stability index: 0.73

seq-string: SFPASSLPHSLL
protein stability index: 0.716

seq-string: WRRCSGGGVGSP
protein stability index: 0.655

seq-string: PSQPLPPSRHRP
protein stability index: 0.616

seq-string: FPRVTGTKPPPA
protein stability index: 0.72

seq-string: RASLPKSLPVSY
protein stability index: 0.604

seq-string: RGVGCDMGGDGG
protein stability index: 0.65

seq-string: EAVCHQFVELIG
protein stability index: 0.605

seq-string: TSPSLSALLSFV
protein stability index: 0.715

seq-string: PPPRPAPPSSHS
protein stability index: 0.641

seq-string: THPPLPPYLSPP
protein stability index: 0.727

seq-string: YLADPSPSIPIL
protein stability index: 0.649

seq-string: ETKKKTNKRAEK
protein stability index: 0.689

seq-string: MFLHLGLFIMSH
protein stability index: 0.382

seq-string: EGGRGGGRGVVG
protein stability index: 0.67

seq-string: TSPVCPARPRQL
protein stability index: 0.646

seq-string: FPPPPLYFPFPL
protein stability index: 0.693

seq-string: DLASPIFSRFSS
protein stability index: 0.687

seq-string: FASTEDDKKNTT
protein stability index: 0.675

seq-string: PPPMSVAVFPFG
protein stability index: 0.678

seq-string: QRTQRGKQPGQR
protein stability index: 0.679

seq-string: GLDRCFTSFYSI
protein stability index: 0.702

seq-string: PPRLRSPTPFLL
protein stability index: 0.755

seq-string: HLGNTMIKKLIG
protein stability index: 0.516

seq-string: SPTDSDINIPRV
protein stability index: 0.714

seq-string: GMLGVIGGKVGR
protein stability index: 0.699

seq-string: PSKMPNSTLRAE
protein stability index: 0.682

seq-string: CWILLFGCVWVG
protein stability index: 0.263

seq-string: KIRFGRCLRSSF
protein stability index: 0.746

seq-string: APPPSPLPLPSL
protein stability index: 0.689

seq-string: PTQVSGIVPAPR
protein stability index: 0.773

seq-string: DEWAGKYLKTIA
protein stability index: 0.702

seq-string: DIERRMEVINNG
protein stability index: 0.696

seq-string: AVNADMHDKKIA
protein stability index: 0.7

seq-string: RNKLEKKIYKRS
protein stability index: 0.672

seq-string: CVTFGGCGVWYV
protein stability index: 0.624

seq-string: PPLRFFPPVSSH
protein stability index: 0.667

seq-string: GGRGGAVEERGG
protein stability index: 0.67

seq-string: RDGHGRHGRGER
protein stability index: 0.634

seq-string: FVILTPFYLTFH
protein stability index: 0.51

seq-string: SPSNPSLRLSSP
protein stability index: 0.676

seq-string: SAPILPPQSSSP
protein stability index: 0.749

seq-string: GCLGYTLSCFTY
protein stability index: 0.401

seq-string: GIVGCDFLLFYF
protein stability index: 0.698

seq-string: TPPLPTTPTLNS
protein stability index: 0.732

seq-string: GRRQGKRRIGRK
protein stability index: 0.652

seq-string: PHPRPPPLSFAP
protein stability index: 0.681

seq-string: KKIKKHEKKKNK
protein stability index: 0.721

seq-string: RSSGPPCLIPLP
protein stability index: 0.787

seq-string: VKGYGLILQISV
protein stability index: 0.565

seq-string: PARPIPFPQPCY
protein stability index: 0.538

seq-string: KSRVCSPSNEPS
protein stability index: 0.744

seq-string: LPSPLPPPAWTP
protein stability index: 0.735

seq-string: QPRLLGPDRIDL
protein stability index: 0.662

seq-string: SGRGGTGIGERV
protein stability index: 0.669

seq-string: APAVPITPPPFP
protein stability index: 0.696

seq-string: EVVEDGAEEVGR
protein stability index: 0.685

seq-string: GGSWGGGGVFVR
protein stability index: 0.637

seq-string: KWREQPRNDIVL
protein stability index: 0.604

seq-string: FIMHRIFMALVI
protein stability index: 0.341

seq-string: FCRLTFCFFAFL
protein stability index: 0.47

seq-string: GCRGRCVMPVCG
protein stability index: 0.634

seq-string: SRFHVLLPPPPS
protein stability index: 0.674

seq-string: LVSEGKRLDVVF
protein stability index: 0.581

seq-string: NHPCPFSELPQL
protein stability index: 0.758

seq-string: VGCWLLGYFAHQ
protein stability index: 0.675

seq-string: DGGSGQGMLGGS
protein stability index: 0.628

seq-string: KLRMGRYIVRII
protein stability index: 0.259

seq-string: RGKKGQKEPAEK
protein stability index: 0.688

seq-string: GAFRLGSIVGVP
protein stability index: 0.735

seq-string: TKKDNKYNRNKK
protein stability index: 0.656

seq-string: CSLVWPGSMSVD
protein stability index: 0.738

seq-string: FARPQCLPVPLP
protein stability index: 0.655

seq-string: LPPTSPPPSSPP
protein stability index: 0.701

seq-string: RVMPRVNDKKGI
protein stability index: 0.732

seq-string: FFVFVVFFCFGL
protein stability index: 0.383
